pIC50: −log10 of the molar value.
Assay read-out pIC50; system under study: rat intestinal sucrase (Rattus norvegicus).
Sequence (P23739 whole entry): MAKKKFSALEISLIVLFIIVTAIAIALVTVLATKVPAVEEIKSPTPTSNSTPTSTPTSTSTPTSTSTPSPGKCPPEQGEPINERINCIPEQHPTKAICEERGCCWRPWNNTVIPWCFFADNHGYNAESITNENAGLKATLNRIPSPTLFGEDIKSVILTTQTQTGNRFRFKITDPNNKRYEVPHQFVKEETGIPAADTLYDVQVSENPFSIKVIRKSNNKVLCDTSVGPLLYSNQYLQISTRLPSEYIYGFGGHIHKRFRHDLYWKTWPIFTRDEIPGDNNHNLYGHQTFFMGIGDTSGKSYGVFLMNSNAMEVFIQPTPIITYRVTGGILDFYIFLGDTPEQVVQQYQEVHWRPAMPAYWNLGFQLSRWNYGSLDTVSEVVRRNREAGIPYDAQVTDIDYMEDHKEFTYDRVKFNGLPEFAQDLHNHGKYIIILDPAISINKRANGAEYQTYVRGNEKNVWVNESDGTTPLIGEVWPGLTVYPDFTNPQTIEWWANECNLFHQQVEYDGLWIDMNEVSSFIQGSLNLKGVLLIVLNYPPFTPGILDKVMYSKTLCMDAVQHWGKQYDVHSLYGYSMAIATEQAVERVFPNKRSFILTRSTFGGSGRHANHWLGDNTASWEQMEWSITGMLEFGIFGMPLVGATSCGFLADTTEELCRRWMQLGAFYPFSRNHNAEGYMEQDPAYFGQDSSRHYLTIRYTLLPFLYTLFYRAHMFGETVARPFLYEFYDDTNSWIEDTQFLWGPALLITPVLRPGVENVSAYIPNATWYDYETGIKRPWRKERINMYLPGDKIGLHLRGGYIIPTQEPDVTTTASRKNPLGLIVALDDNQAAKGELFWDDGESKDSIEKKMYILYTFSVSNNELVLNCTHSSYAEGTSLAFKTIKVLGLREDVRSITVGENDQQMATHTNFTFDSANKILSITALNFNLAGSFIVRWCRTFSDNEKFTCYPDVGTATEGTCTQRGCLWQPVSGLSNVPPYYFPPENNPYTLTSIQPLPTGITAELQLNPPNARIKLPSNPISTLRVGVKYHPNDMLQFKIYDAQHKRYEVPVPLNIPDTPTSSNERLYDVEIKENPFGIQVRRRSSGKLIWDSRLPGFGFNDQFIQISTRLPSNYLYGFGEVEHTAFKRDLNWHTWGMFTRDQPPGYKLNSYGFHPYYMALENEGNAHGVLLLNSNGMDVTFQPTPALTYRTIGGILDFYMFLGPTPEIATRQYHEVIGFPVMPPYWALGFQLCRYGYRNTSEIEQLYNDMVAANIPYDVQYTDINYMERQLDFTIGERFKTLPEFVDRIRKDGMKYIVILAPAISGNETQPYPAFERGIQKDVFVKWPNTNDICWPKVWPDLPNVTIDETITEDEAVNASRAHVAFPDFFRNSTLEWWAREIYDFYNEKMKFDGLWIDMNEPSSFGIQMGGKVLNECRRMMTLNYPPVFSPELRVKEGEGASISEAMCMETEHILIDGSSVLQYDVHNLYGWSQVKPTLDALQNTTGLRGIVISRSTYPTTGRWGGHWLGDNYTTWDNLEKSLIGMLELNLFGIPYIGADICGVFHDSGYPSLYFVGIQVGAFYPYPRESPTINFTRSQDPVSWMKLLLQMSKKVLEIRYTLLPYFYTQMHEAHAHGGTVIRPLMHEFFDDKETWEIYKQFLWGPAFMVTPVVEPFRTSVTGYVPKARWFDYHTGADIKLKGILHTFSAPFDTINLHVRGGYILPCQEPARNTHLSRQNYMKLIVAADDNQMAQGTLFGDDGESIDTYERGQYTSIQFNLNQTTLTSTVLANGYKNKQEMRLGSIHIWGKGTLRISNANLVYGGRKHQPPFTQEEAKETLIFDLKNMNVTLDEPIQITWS
endpoint-name: pIC50

compound | measured-result
O=C1OC[C@H]2OC(=O)c3cc(O)c(O)c(O)c3-c3c(O)c(O)c(O)c4c3C(=O)O[C@H]([C@H]3OC(=O)c5c-4c(O)c(O)c(O)c5[C@H]3O)[C@@H]2OC(=O)c2cc(O)c(O)c(O)c2-c2c1cc(O)c(O)c2O | 3.83
O=c1c(O[C@@H]2O[C@H](CO)[C@@H](O)[C@H](O)[C@H]2O)c(-c2ccc(O)c(O)c2)oc2cc(O)cc(O)c12 [Compound 5, quercetin-3-O-glucoside] | 3.71
O=c1c(O[C@@H]2O[C@@H](CO)[C@H](O)[C@H]2O)c(-c2ccc(O)c(O)c2)oc2cc(O)cc(O)c12 | 3.66

Every entry's value here was drawn from paper PMC4971946.
